For each entry below, report its melting point value.

Report melting point for every entry below.
1. Cl.Oc1ccc(C2CC3CCC2N3)cc1 (centres unmarked)
2. COC(=O)c1ccc(C2CC3CCC2N3)cc1.Cl (centres unmarked)

["242.5 to 244 °C", "235 to 236 °C"]

Please give melting point for each item listed below.
1. Cl.O=C(O)c1ccc(C2CC3CCC2N3)cc1 (centres unmarked)
2. CSc1ccc(C2CC3CCC2N3)cc1.Cl (centres unmarked)
3. Cl.N=C(N)c1ccc(C2CC3CCC2N3)cc1 (centres unmarked)

261.5 to 264.5 °C
216.5 to 218 °C
198.5 to 201 °C
